Where these numbers come from: patent US20260274955A1

Give measured Anti-CD28 Fab signal in the presence of CD28 for each item. Keep answers brief.
- assay-system: anti-CD28 Fab (SEQ ID NOs: 202, 203)
- Sequence (VH, as listed by the source, chain 1 of 2): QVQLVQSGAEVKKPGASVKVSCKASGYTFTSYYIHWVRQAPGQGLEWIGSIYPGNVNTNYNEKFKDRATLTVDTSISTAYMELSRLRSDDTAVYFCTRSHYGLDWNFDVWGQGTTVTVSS
- Sequence (VL, as listed by the source, chain 2 of 2): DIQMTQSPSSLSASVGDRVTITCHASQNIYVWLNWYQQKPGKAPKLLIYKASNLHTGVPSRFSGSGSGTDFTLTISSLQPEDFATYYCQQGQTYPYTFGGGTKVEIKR
- experimental-details: phage ELISA, Fab on plate, CD28 antigen as competitor;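 note: wells pre-incubated with CD28 antigen in blocking buffer (reference: blocking buffer only) before adding crude clonal phage supernatant, bound phage read with HRP-coupled anti-M13 antibody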

Look over these answered cases.
{"binder": "SCSAGALWKWPVCF [Phage-1116]", "recorded-measurement": 0.07}
{"binder": "TCAAGAHYTWPTCL [Phage-1111]", "recorded-measurement": 0.07}
{"binder": "TCAAGANWHWPWCF [Phage-1114]", "recorded-measurement": 0.15}

For every listed record, write down its Anti-CD28 Fab signal in the presence of CD28.
1. SCAEVFNYVWPFCF [Phage-1161]
2. WCDQFFHYKWPLCL [Phage-1126]
3. TCADGAFWQWPVCL [Phage-1184]

Result:
0.07
0.07
0.07

For every listed record, write down its Anti-CD28 Fab signal in the presence of CD28.
1. LCAAGATYPWPICL [Phage-1115]
2. TCAAGVPYKWPPCL [Phage-1169]
3. SCADGAIWEWPWCF [Phage-1164]
4. TCAAGAAYTWPVCF [Phage-1162]
5. TCSAGATYKWPACF [Phage-1172]
6. TCSAGAHYSWPKCF [Phage-1159]
7. SCSAGAMYQWPLCF [Phage-1118]

Result:
[0.08, 0.06, 0.07, 0.08, 0.05, 0.07, 0.09]

For every listed record, write down its Anti-CD28 Fab signal in the presence of CD28.
1. SCAAGATYVWPMCF [Phage-1127]
2. TCSAGATYSWPYCL [Phage-1186]
3. SCAAGAMWEWPKCF [Phage-1163]
4. NCAAGAMYSWPTCL [Phage-1178]
5. SCSAGAGWAWPMCF [Phage-1196]
6. TCAAGANWPWPECL [Phage-1189]
7. QCAAGAMWTWPVCF [Phage-1103]

Result:
1: 0.07; 2: 0.07; 3: 0.09; 4: 0.07; 5: 0.08; 6: 0.08; 7: 0.07
